- Target or system: SAMD9^134-385 protein (SAMD9 tRNase) (Homo sapiens, UniProt Q5K651)
- Construct: The recombinant SAMD9^134-385 or SAMD9^156-385 protein was expressed and purified from E. coli; SUMO (cleaved yes); 6xHis (cleaved yes); made in house; host or cells: E. coli
- Sequence (Q5K651 134-385): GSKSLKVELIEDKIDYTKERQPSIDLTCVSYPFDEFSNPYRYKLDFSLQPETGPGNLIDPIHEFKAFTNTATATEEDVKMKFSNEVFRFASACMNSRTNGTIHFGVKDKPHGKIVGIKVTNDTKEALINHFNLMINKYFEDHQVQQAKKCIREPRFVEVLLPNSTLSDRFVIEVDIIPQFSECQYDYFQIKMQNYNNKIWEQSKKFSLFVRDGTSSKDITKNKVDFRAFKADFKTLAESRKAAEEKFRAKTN
- Protocol description: biochemical
Counter-ions that a name gives are not always drawn.
Observed property: pIC50
Scale explanation: pIC50 corresponds to minus log10 of a concentration expressed in moles per litre.

{"Compound": "Cc1cc(-c2ccc(/N=N/c3ccc4c(S(=O)(=O)O)cc(S(=O)(=O)O)c(N)c4c3O)c(C)c2)ccc1/N=N/c1ccc2c(S(=O)(=O)O)cc(S(=O)(=O)O)c(N)c2c1O [Evans Blue]", "pIC50": 5.92}

Field: next compound
Given NCCOc1cc(C(=O)Nc2cc(OCCN)c3ccccc3n2)nc(C(=O)Nc2cc(OCCN)c3ccccc3n2)c1 [Pyridostatin TFA] , report its pIC50 on SAMD9^134-385 protein (SAMD9 tRNase) (Homo sapiens, UniProt Q5K651).
5.11
